Literature Kd values, system: Adenosine receptor A2a (Homo sapiens).
Sequence (P29274 whole entry): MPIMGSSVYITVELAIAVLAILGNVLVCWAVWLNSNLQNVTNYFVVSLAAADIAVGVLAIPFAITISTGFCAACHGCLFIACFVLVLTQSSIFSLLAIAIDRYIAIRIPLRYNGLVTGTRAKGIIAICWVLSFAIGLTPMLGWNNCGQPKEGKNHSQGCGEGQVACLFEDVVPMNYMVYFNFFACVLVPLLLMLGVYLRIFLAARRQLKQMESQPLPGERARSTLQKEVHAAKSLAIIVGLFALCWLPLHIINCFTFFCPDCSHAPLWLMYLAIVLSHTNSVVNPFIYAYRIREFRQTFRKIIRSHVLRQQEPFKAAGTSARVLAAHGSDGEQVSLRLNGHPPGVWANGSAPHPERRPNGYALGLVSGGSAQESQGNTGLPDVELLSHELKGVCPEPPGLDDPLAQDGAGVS
Provide only the numeric value, understood in nM.

O=C(Nc1ccc2ccccc2n1)c1ccco1 : 40000
O=C1NC(=O)C(c2cccc(Cl)c2)=C1Nc1ccc(O)c(Cl)c1 : 110
Nc1nsc(-c2ccc(Cl)cc2)n1 : 21800
Nc1nc(Nc2ccccc2)nc2c1ncn2[C@@H]1O[C@H](CO)[C@@H](O)[C@H]1O : 9.1
N=c1ccc2c(-c3ccc(C(=O)NCCCCCCn4cc(NCCNC(=O)COc5ccc(CCCn6ncc7c6nc(N)n6nc(-c8ccco8)nc76)cc5)nn4)cc3C(=O)O)c3ccc(N)c(S(=O)(=O)O)c3oc-2c1S(=O)(=O)O : 16.5

Query Kd on Adenosine receptor A2a (Homo sapiens) for Nc1nc(-c2ccccc2)ns1
130000

Query Kd on Adenosine receptor A2a (Homo sapiens) for Cn1c(=O)[nH]c2ccccc2c1=O
28800

Query Kd on Adenosine receptor A2a (Homo sapiens) for Nc1nc(N)nc(-c2ccccc2)n1
1500

Query Kd on Adenosine receptor A2a (Homo sapiens) for Nc1ccc2nnc(-c3ccccc3)n2n1
1110

Query Kd on Adenosine receptor A2a (Homo sapiens) for CCNC(=O)[C@H]1O[C@@H](n2cnc3c(N)nc(NCCc4ccc(CCC(=O)Nc5ccc(OC(C)=O)c([N+](=O)[O-])c5)cc4)nc32)[C@H](O)[C@@H]1O
2.24
